Every entry's value here was drawn from a melting point compilation (Tetko et al.).

Readout Kind: melting point

// solved cases for melting point follow
Molecule	Readout Kind	Reported Value
NC(=O)CNC(=O)c1cccc(N)c1	melting point	170 to 172 °C
Cc1cccc(OC(C)C(=O)O)c1C (stereo not drawn)	melting point	123 to 125 °C

Problem: State the recorded melting point for this entry: "CNS(=O)(=O)c1cccc(CN)c1"
Result: 129 to 131 °C

Problem: Can you handle "O=c1c2sc(-c3ccccc3)cc2nc(S)n1Cc1ccccc1" next?
Result: 313 to 315 °C

Problem: Can you handle "CCOc1ccc(C(=O)CC(=O)C(=O)OC)cc1" next?
Result: 88 to 92 °C

Problem: Can you handle "COc1c(F)c(F)c(N)c(F)c1F" next?
Result: 78 to 80 °C
